- Tested on: Trypanosoma cruzi
- Procedure Text: Antitrypanosomal activity against Trypanosoma cruzi 320I01 amastigotes infected in african green monkey Vero cells after 5 days by Giemsa staining
- Type: functional, organism-based
- Condition Parameters: 320I01, Vero, 120 h
Measured Endpoint: IC90

• O[C@@H]1Cc2cc(Cl)ccc2N[C@H](c2ccccc2F)C1 (relative stereo) = > 38.1 µM
• Clc1ccccc1[C@@H]1C[C@@H]2Cc3ccccc3N1O2 (relative stereo) = > 100 µM
• O[C@@H]1Cc2ccccc2N[C@H](c2ccc(F)cc2)C1 (relative stereo) = > 100 µM
• Fc1ccc2c(c1)C[C@H]1C[C@@H](c3ccc(Cl)cc3)N2O1 (relative stereo) = 104 µM
• FC(F)(F)Oc1ccc2c(c1)C[C@H]1C[C@@H](c3ccccc3)N2O1 (relative stereo) = > 100 µM
• Clc1ccc([C@@H]2C[C@@H]3Cc4ccccc4N2O3)cc1 (relative stereo) = 66.8 µM
• Cc1cccc([C@@H]2C[C@@H]3Cc4ccccc4N2O3)c1 (relative stereo) = > 100 µM

---

- Tested on: Leishmania chagasi
- Procedure Text: Antileishmanial activity against Leishmania chagasi MHOM/BR/74/PP75 promastigotes after 72 hrs by haemocytometry
- Type: functional, organism-based
- Condition Parameters: MHOM/BR/74/PP75, 72 h
Measured Endpoint: IC90

- Fc1ccc2c(c1)C[C@H]1C[C@@H](c3ccccc3)N2O1 (relative stereo): > 100 µM
- Clc1ccc2c(c1)C[C@H]1C[C@@H](c3ccccc3Cl)N2O1 (relative stereo): > 100 µM
- Clc1ccc2c(c1)C[C@H]1C[C@@H](c3ccccc3)N2O1 (relative stereo): 55.4 µM
- Cc1ccc2c(c1)C[C@@H](O)C[C@@H](c1ccccc1Cl)N2 (relative stereo): 49.4 µM
- Fc1cccc(Cl)c1[C@@H]1C[C@@H]2Cc3ccccc3N1O2 (relative stereo): > 100 µM
- O[C@@H]1Cc2ccccc2N[C@H](c2ccc(F)cc2)C1 (relative stereo): > 100 µM
- O[C@@H]1Cc2ccccc2N[C@H](c2ccccc2F)C1 (relative stereo): > 100 µM
- Clc1ccc2c(c1)C[C@H]1C[C@@H](c3c(Cl)cccc3Cl)N2O1 (relative stereo): > 100 µM
- Cc1ccc([C@@H]2C[C@@H]3Cc4cc(C)ccc4N2O3)cc1 (relative stereo): > 100 µM
